Sourced from a melting point compilation (Tetko et al.)

Measured melting point accompanies every entry in the list below.
attribute-measured: melting point

{"compound": "S=C=Nc1ccc(I)cc1", "result": "76 to 78 °C"}
{"compound": "O=[N+]([O-])c1ccc2c(c1)CCN2S(=O)(=O)c1ccccc1", "result": "128 to 130 °C"}
{"compound": "CC12CCC(O)CC1CCC1C2CCC2(C)C1CCC2(O)C#Cc1ccccc1 (stereo unspecified)", "result": "120 to 123 °C"}
{"compound": "S=c1[nH]ccn1-c1cccc(Cl)c1", "result": "161 to 163 °C"}
{"compound": "CC(C)(C)NC(=S)c1cc(C(C)(C)C)c(O)c(C(C)(C)C)c1", "result": "203 to 204 °C"}
{"compound": "NC(CCc1ccccc1)CC(=O)O (stereo unspecified)", "result": "223 to 227 °C"}
{"compound": "N#Cc1ccc(Oc2ccc(C(F)(F)F)cc2N)cc1", "result": "106 to 108 °C"}
{"compound": "OCC1OC=CC(O)C1O (stereo unspecified)", "result": "99 to 103 °C"}
{"compound": "Cc1nn(C)c(Cl)c1[N+](=O)[O-]", "result": "75 to 77 °C"}
{"compound": "COc1ccccc1Nc1[nH]c(=S)nnc1-c1ccccc1", "result": "241 to 242 °C"}
{"compound": "CC(C)(Oc1ccc(Cl)cc1)C(N)=O", "result": "126 to 129 °C"}

---

Use 70 °C as the dividing line for melting point, with the line itself on the YES side and lower values as NO.

{"smiles": "O=C(CBr)c1cccc(C(=O)CBr)c1", "assigned-class": "YES"}
{"smiles": "CCCCCCCCCCCCCCCCCCCCCCCCCCCCCCCCCC", "assigned-class": "YES"}
{"smiles": "COc1cc(C(=O)NCCCCCC(=O)O)cc(OC)c1OC", "assigned-class": "YES"}
{"smiles": "O=C(O)C[C@H](NC(=O)OCC1c2ccccc2-c2ccccc21)c1ccccc1", "assigned-class": "YES"}
{"smiles": "O=[N+]([O-])N1CCCCC1", "assigned-class": "NO"}
{"smiles": "CC(=Nn1c(S)nnc1C(F)(F)F)c1ccc(C)cc1", "assigned-class": "YES"}
{"smiles": "c1ccc(-c2cccc(-c3ccccc3)c2)cc1", "assigned-class": "YES"}
{"smiles": "FCC(F)(F)F", "assigned-class": "NO"}
{"smiles": "CN1CCc2cc3c(cc2C1)OCO3", "assigned-class": "NO"}
{"smiles": "COc1cc(C=O)cc(OC)c1OC", "assigned-class": "YES"}

---

Parameter melting point: see the listing below.
attribute-measured: melting point

{"smiles": "NNC(=S)NC1CCCCC1", "attribute-measured": "melting point", "result": "142 to 145 °C"}
{"smiles": "Cc1onc(-c2ccccc2)c1I", "attribute-measured": "melting point", "result": "104 to 105 °C"}
{"smiles": "N#CCCOc1ccc(Cl)cc1", "attribute-measured": "melting point", "result": "45 to 47 °C"}

---

Entries and their melting point

{"compound": "N#Cc1c(OCC(F)(F)F)cccc1OCC(F)(F)F", "melting point [°C]": 116}
{"compound": "Cc1ccc(S(C)(=O)=O)cc1[N+](=O)[O-]", "melting point [°C]": 121}
{"compound": "O=C(NCCc1ncc(C(F)(F)F)cc1Cl)c1ccccc1C(F)(F)F", "melting point [°C]": 118}
{"compound": "c1ccc(C2=NOC(c3ccccc3)C2)cc1 (stereo not given)", "melting point [°C]": 75}
{"compound": "CCOC(=O)c1ccc(F)cc1", "melting point [°C]": 26}
{"compound": "CCOC1OC(C(N)=O)=CC(C)C1Br (stereo not given)", "melting point [°C]": 131}
{"compound": "O=Cc1ccccc1OCc1ccccc1", "melting point [°C]": 47}
{"compound": "CCOC(=O)c1c(NS(=O)(=O)c2ccc(Cl)cc2)nn(-c2ccc([N+](=O)[O-])cc2)c1N", "melting point [°C]": 200}
{"compound": "FC(Br)C(F)(F)F (stereo not given)", "melting point [°C]": -80}
{"compound": "CCCCCCC(=O)CCCCC", "melting point [°C]": 10}
{"compound": "COc1ccc(-c2ccnc(S)n2)cc1", "melting point [°C]": 202}
{"compound": "Clc1ncnc2[nH]cnc12", "melting point [°C]": 300}
{"compound": "Nc1ccc(C(=O)c2ccccc2)cc1N", "melting point [°C]": 117}
{"compound": "CCC(O)(CC)C1(C)CCC(C(=O)O)C(C)(C)O1 (stereo not given)", "melting point [°C]": 138}
{"compound": "Cn1cnc2ncnc(N)c21", "melting point [°C]": 323}
{"compound": "CN(C)c1ccc(CO)cc1", "melting point [°C]": 69}
{"compound": "Cc1cc(C(F)(F)F)n2nc(-c3ccc(Cl)cc3)cc2n1", "melting point [°C]": 176}
{"compound": "COc1cccc(CNC(=O)c2[nH]c3ccccc3c2CCO)c1", "melting point [°C]": 151}
{"compound": "COC(=O)CNC(SC)=C(C#N)C#N", "melting point [°C]": 90}
{"compound": "Cc1c[nH]c(-c2ccccc2)n1", "melting point [°C]": 175}
{"compound": "O=C1c2ccccc2CC2C=CC=CC12 (stereo not given)", "melting point [°C]": 152}
{"compound": "CC(=O)OC1C2=C(C(=O)C(O)=C(C(C)C)C2=O)C2(C)CCCC(C)(C)C2C1O (stereo not given)", "melting point [°C]": 216}
{"compound": "CN1CC(c2ccccc2)(c2ccccc2)C(=O)c2c(cc(-c3ccccc3)c3ccccc23)C1=O", "melting point [°C]": 265}
{"compound": "CCCC(c1ccc(O)cc1)c1ccc(O)cc1", "melting point [°C]": 137}
{"compound": "Cc1ccc2ccc3ccc(C)cc3c2c1", "melting point [°C]": 145}
{"compound": "O=[N+]([O-])c1c[nH]cn1", "melting point [°C]": 303}
{"compound": "CN(C)CCN(C)C", "melting point [°C]": -55}
